- run.description: Cytotoxicity against human 1121L cells after 4 days by propidium iodide assay
- Type: functional, cell-based
- details: 96 h
outcome.measure: pIC50
Hey, just a heads up that pIC50 is the negative log base 10 of the concentration in molar.

CNC1=CC(=O)c2cc(C)ncc2C1=O 5.18
CNC1=CC(=O)c2c(cnc(C)c2C)C1=O 4.57

Consider the record given below.
State the recorded pIC50 for this entry: CNC1=CC(=O)c2cc(C(=O)OC)ncc2C1=O
6.82

----------
- Test system: HCT-116
- run.description: Cytotoxicity against human HCT116 cells after 4 days by propidium iodide assay
- Type: functional, cell-based
- details: HCT-116, 96 h
outcome.measure: IC50 (µM)
Give the value, in units of µM, as a plain number.

CNC1=CC(=O)c2cc(C)ncc2C1=O 3.62

Lookup: IC50 / HCT-116 / CNC1=CC(=O)c2cc(C(=O)OC)ncc2C1=O
0.114

And for CNC1=CC(=O)c2c(cnc(C)c2C)C1=O ?
9.11
